Let's look at some compounds and their measured inhibition at 10 µM.
molecular target: human bradykinin receptor 1 (B1R) (Homo sapiens, UniProt P46663); construct: expressed in transfected cells; host or cells: CHO K1 cells; experiment: Functional study on the bradykinin receptor 1 (B1R), human: FLIPR Ca2+ influx assay; format: cell-based; conditions: test substance 10 μM; CHO K1 cells transfected with human B1R; Lys-Des-Arg9-bradykinin at EC80; Ca2+ influx (Fluo-4, FLIPR); read-out: B1R antagonism, human [10 μM] % inhibition
Sequence (P46663 whole entry): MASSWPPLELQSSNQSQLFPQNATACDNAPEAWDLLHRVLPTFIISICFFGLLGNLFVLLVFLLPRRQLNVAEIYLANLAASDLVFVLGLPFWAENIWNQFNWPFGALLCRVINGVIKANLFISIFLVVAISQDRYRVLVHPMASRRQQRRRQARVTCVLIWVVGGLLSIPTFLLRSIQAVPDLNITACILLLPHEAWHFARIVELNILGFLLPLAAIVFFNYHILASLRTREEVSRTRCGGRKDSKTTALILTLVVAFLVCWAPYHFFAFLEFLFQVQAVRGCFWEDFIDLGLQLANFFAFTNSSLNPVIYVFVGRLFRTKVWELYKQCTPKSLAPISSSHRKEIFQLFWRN
Dear colleague, please return just the value in %, with no unit written.

{"compound": "O=C(CC1C(=O)Nc2ccccc2N1S(=O)(=O)c1ccc(Cl)c(Cl)c1)NC1CCC(C(c2ccccc2)N2CCOCC2)CC1 (stereo not drawn) [Example 54]", "inhibition at 10 µM / %": 105}
{"compound": "CN(C)C(c1cccc(F)c1)C1CCC(NC(=O)CC2c3ccccc3CCN2S(=O)(=O)c2ccc(Cl)c(Cl)c2)CC1 (stereo not drawn) [Example 26]", "inhibition at 10 µM / %": 97.4}
{"compound": "Cc1cc(S(=O)(=O)N2CCCCC2CCC(=O)N2CCC(C(c3ccc(F)cc3)N3CCN(C)CC3)CC2)c(C)cc1Cl (stereo not drawn) [Example 121]", "inhibition at 10 µM / %": 105}
{"compound": "O=C(CC1C(=O)Nc2ccccc2N1S(=O)(=O)c1ccc(Cl)c(Cl)c1)NC1CCC(C(CCc2ccccc2)N2CCCCC2)CC1 (stereo not drawn) [Example 68]", "inhibition at 10 µM / %": 104}

I would be grateful if you could share the reported inhibition at 10 µM for CN(C)C(c1ccccc1)C1CCC(CNC(=O)CC2c3ccccc3CCN2S(=O)(=O)c2ccc(Cl)c(Cl)c2)CC1 (stereo not drawn) [Example 29] .
64.5

Value lookup for inhibition at 10 µM; key = O=C(CC1C(=O)Nc2ccccc2N1S(=O)(=O)c1ccc(Cl)c(Cl)c1)NC1CCC(C(c2ccccc2)N2CCCC2)CC1 (stereo not drawn) [Example 103]
103
